Assay: Urinary recovery in mice
Type: in vivo
Conditions: mouse, urine, 3-6 hr., with BCH-1 10 mg/kg i.p., read-out: Percent Recovered (urine)
MEASUREMENT TYPE: dose excreted at 6 h (%)
// note: answer is a bare numeric in %

Query: Quick one: give measured dose excreted at 6 h for C[C@@H](O)[C@H]1C(=O)N2C(C(=O)[O-])=C(SC3CC[S+](C)CC3)C[C@H]12 (stereo partly shown)
Response: 0.1

====

Experiment: Blood levels in mice after intramuscular dosing
Type: in vivo
Conditions: mouse, im, 20 mg/kg, 20 mg/kg i.m., without BCH-1
MEASUREMENT TYPE: AUC (ng·h/mL)
// note: answer is a bare numeric in ng·h/mL

Query: Quick one: give measured AUC for C[C@@H](O)[C@H]1C(=O)N2C(C(=O)[O-])=C(SC3CC[S+](C)CC3)C[C@H]12 (stereo partly shown)
Response: 6800

====

Test: Half-life in pH 7.4 biological buffer
Format: physicochemical
Settings: 37° C.
MEASUREMENT TYPE: half-life (h)
// note: answer is a bare numeric in h

Query: Quick one: give measured half-life for C[C@@H](O)[C@H]1C(=O)N2C(C(=O)[O-])=C(SC3CC[S+](C)CC3)[C@H](C)[C@H]12 (stereo partly shown)
Response: 30

====

Test: Urinary recovery in mice
Format: in vivo
Conditions: mouse, urine, 3-6 hr., without BCH-1, read-out: Percent Recovered (urine)
MEASUREMENT TYPE: dose excreted at 6 h (%)
// note: answer is a bare numeric in %

Query: Quick one: give measured dose excreted at 6 h for C[C@@H](O)[C@H]1C(=O)N2C(C(=O)[O-])=C(SC3CC[S+](C)CC3)C[C@H]12 (stereo partly shown) [Example 1]
Response: 0.2

====

Assay: Blood levels in mice after intramuscular dosing
Type: in vivo
Conditions: mouse, im, 20 mg/kg, 30 min after 20 mg/kg i.m., with BCH-1 10 mg/kg i.p.
MEASUREMENT TYPE: concentration at 0.5 h (ng/mL)
// note: answer is a bare numeric in ng/mL

Query: Quick one: give measured concentration at 0.5 h for C[C@@H](O)[C@H]1C(=O)N2C(C(=O)[O-])=C(SC3CC[S+](C)CC3)C[C@H]12 (stereo partly shown)
Response: 12600

====

Assay: Blood levels in mice after intramuscular dosing
Type: in vivo
Conditions: mouse, im, 20 mg/kg, 20 min after 20 mg/kg i.m., with BCH-1 10 mg/kg i.p.
MEASUREMENT TYPE: concentration at 20 min (ng/mL)
// note: answer is a bare numeric in ng/mL

Query: Quick one: give measured concentration at 20 min for C[C@@H](O)[C@H]1C(=O)N2C(C(=O)[O-])=C(SC3CC[S+](C)CC3)C[C@H]12 (stereo partly shown)
Response: 16100

====

Assay: Blood levels in mice after intramuscular dosing
Format: in vivo
Settings: mouse, im, 20 mg/kg, 90 min after 20 mg/kg i.m., without BCH-1
MEASUREMENT TYPE: concentration at 1.5 h (ng/mL)
// note: answer is a bare numeric in ng/mL

Query: Quick one: give measured concentration at 1.5 h for C[C@@H](O)[C@H]1C(=O)N2C(C(=O)[O-])=C(SC3CC[S+](C)CC3)C[C@H]12 (stereo partly shown) [Example 1]
Response: 300

====

Assay: Blood levels in mice after intramuscular dosing
Type: in vivo
Conditions: mouse, im, 20 mg/kg, 20 mg/kg i.m., with BCH-1 10 mg/kg i.p.
MEASUREMENT TYPE: AUC (ng·h/mL)
// note: answer is a bare numeric in ng·h/mL

Query: Quick one: give measured AUC for C[C@@H](O)[C@H]1C(=O)N2C(C(=O)[O-])=C(SC3CC[S+](C)CC3)C[C@H]12 (stereo partly shown)
Response: 10900

====

Assay: Blood levels in mice after intramuscular dosing
Format: in vivo
Settings: mouse, im, 20 mg/kg, 20 mg/kg i.m., with BCH-1 10 mg/kg i.p.
Method: For the determination of blood levels, two groups of mice were used. Each group consisted of four 20 g mice. Prior to dosing (5-10 min.) one of the groups received an i.p. injection of a dipeptidase inhibitor (BCH-1) at a level of 10 mg/kg.
MEASUREMENT TYPE: Cmax (ng/mL)
// note: answer is a bare numeric in ng/mL

Query: Quick one: give measured Cmax for C[C@@H](O)[C@H]1C(=O)N2C(C(=O)[O-])=C(SC3CC[S+](C)CC3)C[C@H]12 (stereo partly shown)
Response: 16100

====

Test: Blood levels in mice after intramuscular dosing
Format: in vivo
Conditions: mouse, im, 20 mg/kg, 60 min after 20 mg/kg i.m., with BCH-1 10 mg/kg i.p.
MEASUREMENT TYPE: concentration at 1 h (ng/mL)
// note: answer is a bare numeric in ng/mL

Query: Quick one: give measured concentration at 1 h for C[C@@H](O)[C@H]1C(=O)N2C(C(=O)[O-])=C(SC3CC[S+](C)CC3)C[C@H]12 (stereo partly shown) [Example 1]
Response: 3000

====

Experiment: Blood levels in mice after intramuscular dosing
Format: in vivo
Settings: mouse, im, 20 mg/kg, 20 min after 20 mg/kg i.m., without BCH-1
Method: For the determination of blood levels, two groups of mice were used. Each group consisted of four 20 g mice. Prior to dosing (5-10 min.) one of the groups received an i.p. injection of a dipeptidase inhibitor (BCH-1) at a level of 10 mg/kg.
MEASUREMENT TYPE: concentration at 20 min (ng/mL)
// note: answer is a bare numeric in ng/mL

Query: Quick one: give measured concentration at 20 min for C[C@@H](O)[C@H]1C(=O)N2C(C(=O)[O-])=C(SC3CC[S+](C)CC3)C[C@H]12 (stereo partly shown) [Example 1]
Response: 11400

====

Assay: Blood levels in mice after intramuscular dosing
Type: in vivo
Settings: mouse, im, 20 mg/kg, 10 min after 20 mg/kg i.m., with BCH-1 10 mg/kg i.p.
MEASUREMENT TYPE: concentration at 10 min (ng/mL)
// note: answer is a bare numeric in ng/mL

Query: Quick one: give measured concentration at 10 min for C[C@@H](O)[C@H]1C(=O)N2C(C(=O)[O-])=C(SC3CC[S+](C)CC3)C[C@H]12 (stereo partly shown)
Response: 15400

====

Test: Blood levels in mice after intramuscular dosing
Format: in vivo
Settings: mouse, im, 20 mg/kg, 20 mg/kg i.m., with BCH-1 10 mg/kg i.p.
MEASUREMENT TYPE: Tmax (min)
// note: answer is a bare numeric in min

Query: Quick one: give measured Tmax for C[C@@H](O)[C@H]1C(=O)N2C(C(=O)[O-])=C(SC3CC[S+](C)CC3)C[C@H]12 (stereo partly shown)
Response: 20

====

Assay: Blood levels in mice after intramuscular dosing
Assay type: in vivo
Details: mouse, im, 20 mg/kg, 30 min after 20 mg/kg i.m., without BCH-1
MEASUREMENT TYPE: concentration at 0.5 h (ng/mL)
// note: answer is a bare numeric in ng/mL

Query: Quick one: give measured concentration at 0.5 h for C[C@@H](O)[C@H]1C(=O)N2C(C(=O)[O-])=C(SC3CC[S+](C)CC3)C[C@H]12 (stereo partly shown)
Response: 7200

====

Test: Urinary recovery in mice
Type: in vivo
Conditions: mouse, urine, 0-6 hr., without BCH-1, read-out: Percent Recovered (urine)
MEASUREMENT TYPE: dose excreted at 6 h (%)
// note: answer is a bare numeric in %

Query: Quick one: give measured dose excreted at 6 h for C[C@@H](O)[C@H]1C(=O)N2C(C(=O)[O-])=C(SC3CC[S+](C)CC3)C[C@H]12 (stereo partly shown)
Response: 44.2

====

Test: Blood levels in mice after intramuscular dosing
Assay type: in vivo
Settings: mouse, im, 20 mg/kg, 45 min after 20 mg/kg i.m., with BCH-1 10 mg/kg i.p.
MEASUREMENT TYPE: concentration at 0.75 h (ng/mL)
// note: answer is a bare numeric in ng/mL

Query: Quick one: give measured concentration at 0.75 h for C[C@@H](O)[C@H]1C(=O)N2C(C(=O)[O-])=C(SC3CC[S+](C)CC3)C[C@H]12 (stereo partly shown) [Example 1]
Response: 7400

====

Assay: Urinary recovery in mice
Assay type: in vivo
Conditions: mouse, urine, 0-6 hr., with BCH-1 10 mg/kg i.p., read-out: Percent Recovered (urine)
Description: Two groups of mice were used for the urinary recovery evaluation. Each group consisted of four 20 g mice. Prior to dosing (5-10 minutes) one of the groups received an i.p. injestion of a dipeptidase inhibitor (BCH-1) at a level of 10 mg/kg. Following dosing, animals were placed in individual metabolism cages and the urine collected over ice at intervals of 0-3 and 3-6 hr. […]
MEASUREMENT TYPE: dose excreted at 6 h (%)
// note: answer is a bare numeric in %

Query: Quick one: give measured dose excreted at 6 h for C[C@@H](O)[C@H]1C(=O)N2C(C(=O)[O-])=C(SC3CC[S+](C)CC3)C[C@H]12 (stereo partly shown)
Response: 67.1
